Measured MIC accompanies every entry in the list below.
Tested on: Escherichia coli KY 8327
TEST METHOD NOTES: Agar dilution MIC, pH 8.0: Escherichia coli KY 8327
Type: cell-based
REPORTED CONDITIONS: Escherichia coli, KY8327; agar-dilution method, pH 8.0; strain produces gentamicin adenyltransferase; read-out: Minimum Inhibitory Concentration
Form entry: value (µg/mL) — number only.

Answered examples (3):
{"columns": ["ENTRY SMILES", "MIC (µg/mL)"],
 "data": [
  ["CNC[C@@H]1CC[C@@H](NC(=O)[C@@H](O)CCN)[C@@H](O[C@H]2[C@H](O)[C@@H](O[C@H]3OC[C@](C)(O)[C@H](NC)[C@H]3O)[C@H](NC(=O)[C@@H](O)CCN)C[C@@H]2N)O1", 0.065],
  ["CNC[C@@H]1CC[C@@H](N)[C@@H](O[C@H]2[C@H](O)[C@@H](O[C@H]3OC[C@](C)(O)[C@H](NC)[C@H]3O)[C@H](NC(=O)[C@@H](O)CCN)C[C@@H]2N)O1", 0.016],
  ["CNC[C@@H]1CC[C@@H](NC(=O)[C@@H](O)CCN)[C@@H](O[C@H]2[C@H](O)[C@@H](O[C@H]3OC[C@](C)(O)[C@H](NC)[C@H]3O)[C@H](N)C[C@@H]2N)O1", 3.1]
]}

Then this compound:
Query MIC on Escherichia coli KY 8327 for CNC[C@@H]1CC[C@@H](NC(=O)[C@@H](O)CCN)[C@@H](O[C@H]2[C@H](O)[C@@H](O[C@H]3OC[C@](C)(O)[C@H](NC)[C@H]3O)[C@H](N)C[C@@H]2NC(=O)[C@@H](O)CCN)O1
0.26

All figures here come from patent US4218562A.
